- System: Escherichia coli isolates
- TEST SUMMARY: MIC of cephalosporins alone or with clavulanate/tazobactam
- Format: cell-based
- CONDITION DETAILS: AECO1078 (CTX-M-15), clavulanate 2:1, tazobactam 4 μg/mL
# MIC per record follows
READOUT LABEL: MIC

INSERT INTO measurements (compound, reported_result) VALUES
  ('C[C@]1(Cn2ccnn2)[C@H](C(=O)O)N2C(=O)C[C@H]2S1(=O)=O [Tazobactam, tazobactam]', '> 64 µg/mL'),
  ('O=C(O)[C@H]1/C(=C/CO)O[C@@H]2CC(=O)N21 [Clavulanate, clavulanic acid]', '32 µg/mL'),
  ('COCC1=C(C(=O)O)N2C(=O)[C@@H](NC(=O)/C(=N\OC)c3csc(N)n3)[C@H]2SC1 [Cefpodoxime, cefpodoxime]', '> 64 µg/mL');
